Ref: patent US9511134B2

Target: DRB1*0101 (Homo sapiens, UniProt P01903+P01911, A100R/D57E/F55L/F60I/F76Y/I96L/L162R/M171V/P40L/Q125E/R42F/V115G/Y59C)
Construct: made in house; host or cells: EBV-transformed homozygous human B cell lines, transfected fibroblasts or single-allele 721.221 transfectants
Test: biochemical
Type: binding
Conditions: IC50 nM to purified HLA DRB1*0101, Table 4
measured.quantity: log10 IC50 (log10 of the value in nM)
Kindly note that the scale is log10 and the underlying IC50 is in nM.

For orientation, consider the following solved cases.
CC[C@H](C)[C@H](NC(=O)[C@@H](N)Cc1ccc(O)cc1)C(=O)N[C@@H](CCC(N)=O)C(=O)N[C@@H](CCSC)C(=O)N[C@@H](CS)C(=O)N[C@H](C(=O)N[C@@H](CCC(=O)O)C(=O)N[C@@H](CC(C)C)C(=O)N[C@@H](CCCCN)C(=O)N[C@@H](CC(C)C)C(=O)N[C@@H](CO)C(=O)N[C@@H](CC(=O)O)C(=O)N[C@@H](Cc1ccc(O)cc1)C(=O)N[C@@H](CCC(=O)O)C(=O)NCC(=O)O)[C@@H](C)O; 2.51
CC[C@H](C)[C@H](NC(=O)[C@H](CC(C)C)NC(=O)[C@H](C)NC(=O)[C@H](CO)NC(=O)[C@H](CCCNC(=N)N)NC(=O)[C@H](C)NC(=O)[C@H](CC(C)C)NC(=O)[C@H](Cc1ccccc1)NC(=O)[C@@H](NC(=O)[C@@H](N)CC(C)C)[C@@H](C)CC)C(=O)N[C@@H](CC(C)C)C(=O)N[C@@H](CCCNC(=N)N)C(=O)NCC(=O)N[C@@H](CO)C(=O)N[C@H](C(=O)O)C(C)C; 0.94
CC[C@H](C)[C@H](N)C(=O)N[C@@H](Cc1ccc(O)cc1)C(=O)N[C@@H](CCC(N)=O)C(=O)N[C@H](C(=O)N[C@@H](CC(C)C)C(=O)N[C@@H](CO)C(=O)N[C@H](C(=O)N[C@@H](Cc1ccc(O)cc1)C(=O)N[C@@H](CO)C(=O)N[C@H](C(=O)N[C@H](C(=O)N[C@@H](C)C(=O)N[C@@H](CO)C(=O)N[C@@H](CO)C(=O)N[C@@H](CC(C)C)C(=O)N[C@@H](C)C(=O)O)C(C)C)[C@@H](C)O)[C@@H](C)CC)[C@@H](C)CC; 1.74
CC[C@H](C)[C@H](NC(=O)[C@H](C)NC(=O)CNC(=O)[C@@H](N)CCC(=O)O)C(=O)N[C@H](C(=O)NCC(=O)N[C@@H](CCC(=O)O)C(=O)N[C@H](C(=O)N[C@@H](CO)C(=O)N1CCC[C@H]1C(=O)N[C@@H](CC(C)C)C(=O)N1CCC[C@H]1C(=O)N[C@@H](CO)C(=O)N[C@@H](CC(C)C)C(=O)N1CCC[C@H]1C(=O)O)[C@@H](C)CC)C(C)C; 1.93

Query compound follows.
Noted for CC[C@H](C)[C@H](N)C(=O)N[C@@H](CC(C)C)C(=O)N[C@@H](CO)C(=O)N[C@H](C(=O)N[C@@H](Cc1ccc(O)cc1)C(=O)N[C@@H](CO)C(=O)N[C@H](C(=O)N[C@H](C(=O)N[C@@H](C)C(=O)N[C@@H](CO)C(=O)N[C@@H](CO)C(=O)N[C@@H](CC(C)C)C(=O)N[C@@H](C)C(=O)N[C@@H](CC(C)C)C(=O)N[C@@H](C)C(=O)N[C@H](C(=O)O)[C@@H](C)CC)C(C)C)[C@@H](C)O)[C@@H](C)CC : its log10 IC50 reads 1.04
